targetDesc: Neurotensin receptor type 1 (Homo sapiens, UniProt P30989)
Sequence (P30989 whole entry): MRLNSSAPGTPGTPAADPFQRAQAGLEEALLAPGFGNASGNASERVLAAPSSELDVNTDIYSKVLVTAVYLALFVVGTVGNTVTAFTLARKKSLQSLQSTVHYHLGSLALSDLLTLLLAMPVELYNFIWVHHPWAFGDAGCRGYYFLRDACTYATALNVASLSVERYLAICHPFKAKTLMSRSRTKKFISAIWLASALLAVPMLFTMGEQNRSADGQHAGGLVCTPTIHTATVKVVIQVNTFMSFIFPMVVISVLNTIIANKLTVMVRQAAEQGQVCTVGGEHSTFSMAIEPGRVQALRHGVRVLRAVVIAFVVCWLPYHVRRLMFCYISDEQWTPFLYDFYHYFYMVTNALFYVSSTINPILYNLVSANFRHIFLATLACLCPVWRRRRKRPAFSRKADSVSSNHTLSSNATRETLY
protocolSummary: Displacement of [125I]-neurotensin from human recombinant NTS1 stably expressed in CHO-K1 cell membranes incubated for 60 mins by gamma counter method
Numbered stars: 1 amine (or outer) side, 2 acyl side, 3 side chain; on linkers, the order of the positions; unused ones are H or OH. Square brackets hold non-standard residues; d marks the D form. Peptide text beside a SMILES is read from it. X1 = O=C1[C@@H](N[*:1])Cc2ccccc2CN1CCC(=O)[*:2]; X2 = O=C([C@@H]1Cc2cc(O)ccc2CN1[*:1])[*:2]; Dmt = Cc1cc(O)cc(C)c1C[C@H](N)C(=O)O; Tle = CC(C)(C)[C@H](N)C(=O)O
Field 'label' (enum: true (1) / false (0)). Set to true (1) when Ki is strictly under 0.004 µM; else false (0).

{"columns": ["compound", "targetDesc", "assignedLabel"],
 "data": [
  ["Cc1cc(O)cc(C)c1C[C@H](N)C(=O)N[C@H](CCCNC(=N)N)C(=O)N[C@H]1Cc2ccccc2CN(CCC(=O)N[C@@H](CCCCN)C(=O)N[C@@H](CCCCN)C(=O)N2CCC[C@H]2C(=O)N2Cc3ccc(O)cc3C[C@H]2C(=O)N[C@H](C(=O)N[C@@H](CC(C)C)C(=O)O)C(C)(C)C)C1=O (H-[Dmt][dR][X1]KKP[X2][Tle]L-OH)", "Neurotensin receptor type 1 (Homo sapiens, UniProt P30989)", "false (0)"],
  ["Cc1cc(O)cc(C)c1C[C@H](N)C(=O)N[C@H](CCCCN)C(=O)N[C@@H](Cc1ccccc1)C(=O)N[C@@H](Cc1ccccc1)C(=O)N[C@@H](CCCCN)C(=O)N[C@@H](CCCCN)C(=O)N1CCC[C@H]1C(=O)N[C@@H](Cc1ccccc1)C(=O)N[C@H](C(=O)N[C@@H](CC(C)C)C(=O)O)C(C)(C)C (H-[Dmt][dK]FFKKPF[Tle]L-OH)", "Neurotensin receptor type 1 (Homo sapiens, UniProt P30989)", "false (0)"],
  ["Cc1cc(O)cc(C)c1C[C@H](N)C(=O)N[C@H](CCCNC(=N)N)C(=O)N[C@H]1Cc2ccccc2CN(CCC(=O)N[C@@H](CCCNC(=N)N)C(=O)N[C@@H](CCCNC(=N)N)C(=O)N2CCC[C@H]2C(=O)N[C@@H](Cc2ccc(O)cc2)C(=O)N[C@H](C(=O)N[C@@H](CC(C)C)C(=O)O)C(C)(C)C)C1=O (H-[Dmt][dR][X1]RRPY[Tle]L-OH)", "Neurotensin receptor type 1 (Homo sapiens, UniProt P30989)", "true (1)"],
  ["CC(C)C[C@H](NC(=O)[C@@H](NC(=O)[C@H](Cc1cccc(O)c1)NC(=O)[C@@H]1CCCN1C(=O)[C@H](CCCNC(=N)N)NC(=O)[C@@H](N)CCCNC(=N)N)C(C)(C)C)C(=O)O", "Neurotensin receptor type 1 (Homo sapiens, UniProt P30989)", "false (0)"],
  ["Cc1cc(O)cc(C)c1C[C@H](N)C(=O)N[C@H](CCCNC(=N)N)C(=O)N[C@H]1Cc2ccccc2CN(CCC(=O)N[C@@H](CCCCN)C(=O)N[C@@H](CCCCN)C(=O)N2CCC[C@H]2C(=O)N[C@@H](Cc2ccc(O)cc2)C(=O)N[C@H](C(=O)N[C@@H](CC(C)C)C(=O)O)C(C)(C)C)C1=O (H-[Dmt][dR][X1]KKPY[Tle]L-OH)", "Neurotensin receptor type 1 (Homo sapiens, UniProt P30989)", "true (1)"]
]}
